assayMethodText: reversed-phase LC retention time (C18, 15 min MeOH gradient); higher = more hydrophobic / later elution
conditionParameters: ionization mode: ESI-; ion species: [M-H]-
Counter-ions that a name gives are not always drawn.
Listing of entries alongside the reported reversed-phase LC retention time.
Unit min implied. Number only.

In the examples that follow, each entry is paired with its recorded reversed-phase LC retention time.
- compound: "O=C(Nc1ccc(Cl)cc1)Nc1ccc(Cl)c(Cl)c1"
  measValue: 16.6
- compound: "CCC1(C2OC(C3OC(O)(CO)C(C)CC3C)CC2C)CCC(C2(C)CCC3(CC(O)C(C)C(C(C)C(OC)C(C)C(=O)O)O3)O2)O1 (centres undefined)"
  measValue: 17.5
- compound: "Cc1ccc(OS(=O)(=O)[O-])cc1 [p-Tolyl Sulfate]"
  measValue: 7.34

With those in mind, consider the next compound.
Query block: What does the record list as reversed-phase LC retention time for O=S(=O)(O)c1ccc2[nH]c(-c3ccccc3)nc2c1 ?
Result block: 8.23
